Origin of values: patent US10344026B2

- Test system: Panc10.05-G12D
- ASSAY_PROTOCOL: Viability assay (CellTiterBlue, 72 hr) Panc10.05
- Type: cell-based
- CONDITION_SET: Homo sapiens, Panc1005, GI50, CellTiterBlue, Panc10.05 K-Ras G12D, read-out: 72 hr Cell Viability Panc10.05 (G12D)
READOUT_LABEL: IC50 (nM)
Note: unit nM is implicit; provide only the numeric part.

Below, each entry is followed by its recorded IC50 result.
>>> recorded_measurement("Cc1nc(C)c(C(=O)Nc2nc(-c3ccc4c(c3)CCC(=O)N4Cc3cccc([N+](=O)[O-])c3)cs2)o1")
17000
>>> recorded_measurement("CCn1nccc1C(=O)Nc1nc(-c2ccc3c(c2)CCC(=O)N3)cs1")
11000
>>> recorded_measurement("CC(=O)Nc1nc(C)c(C(=O)Nc2nc(-c3ccc4c(c3)CCC(=O)N4)cs2)s1")
6000

[in] Request - read-out IC50 | tested on Panc10.05-G12D | compound Cc1nn(C(C)C)cc1C(=O)Nc1nc(-c2ccc3c(c2)CCC(=O)N3Cc2cccnc2)cs1
[out] 1200

[in] Under Panc10.05-G12D: IC50 value of Cc1nc(C2CCC2)oc1C(=O)Nc1nc(-c2ccc3c(c2)CCC(=O)N3)cs1 ?
[out] 1300

[in] Notebook: pull reported IC50 for Panc10.05-G12D, entry Cc1nc(C)c(C(=O)Nc2nc(-c3ccc4c(c3)CCC(=O)N4CC3CCCCC3)cs2)o1
[out] 2000

[in] Checklist item: IC50 tested on Panc10.05-G12D, entry Cc1nc(C2CC2)oc1C(=O)Nc1nc(-c2ccc3c(c2)CCC(=O)N3)cs1 , value?
[out] 3600

[in] Look up IC50 with Panc10.05-G12D for this compound: Cc1nc(NC(=O)Nc2ccccc2)sc1C(=O)Nc1nc(-c2ccc3c(c2)CCC(=O)N3)cs1
[out] 1300

[in] Lab note: need IC50 for Cc1nn(C)cc1C(=O)Nc1nc(-c2ccc3c(c2)CCC(=O)N3Cc2cccnc2)cs1 on Panc10.05-G12D, anyone have it?
[out] 3000

[in] Hello, I am looking for reported IC50 with Panc10.05-G12D for COCCCN1C(=O)CCc2cc(-c3csc(NC(=O)c4oc(C)nc4C)n3)ccc21 . Could you help?
[out] 3000

[in] Please provide the recorded IC50 for CCn1cc(C(=O)Nc2nc(-c3ccc4c(c3)CCC(=O)N4)cs2)c(C)n1 , tested on Panc10.05-G12D.
[out] 774

[in] Could you share what IC50 was measured for Cc1nc(C)c(C(=O)Nc2nc(-c3ccc4c(c3)CCC(=O)N4Cc3cccnc3)cs2)s1 , tested on Panc10.05-G12D?
[out] 2000

[in] # returns recorded IC50 (system: Panc10.05-G12D) for Cc1nn(C(C)(C)C)c(C)c1C(=O)Nc1nc(-c2ccc3c(c2)CCC(=O)N3)cs1
[out] 8000

[in] Item: Cc1nc(C)c(C(=O)Nc2nc(-c3ccc4c(c3)CCC(=O)N4Cc3ccccc3)cs2)o1 Test system: Panc10.05-G12D Read-out: IC50 Value: ?
[out] 13000

[in] Query IC50 on Panc10.05-G12D for CCn1nc(C)c(C(=O)Nc2nc(-c3ccc4c(c3)CCC(=O)N4Cc3cccnc3)cs2)c1C
[out] 1100

[in] Under Panc10.05-G12D: IC50 value of Cc1nc(C)c(C(=O)Nc2nc(-c3ccc4c(c3)CCC(=O)N4Cc3ccc4c(c3)OCO4)cs2)o1 ?
[out] 2000

[in] Checklist item: IC50 tested on Panc10.05-G12D, entry CCc1nc(C)c(C(=O)Nc2nc(-c3ccc4c(c3)CCC(=O)N4Cc3cccnc3)cs2)o1 , value?
[out] 2000

[in] Look up IC50 with Panc10.05-G12D for this compound: CCn1cc(C(=O)Nc2nc(-c3ccc4c(c3)CCC(=O)N4Cc3cccnc3)cs2)c(C)n1
[out] 4000
